target entity: PDZ1/2 domain (Homo sapiens (Human)), P78352
Sequence (P78352 65-246 limits assumed): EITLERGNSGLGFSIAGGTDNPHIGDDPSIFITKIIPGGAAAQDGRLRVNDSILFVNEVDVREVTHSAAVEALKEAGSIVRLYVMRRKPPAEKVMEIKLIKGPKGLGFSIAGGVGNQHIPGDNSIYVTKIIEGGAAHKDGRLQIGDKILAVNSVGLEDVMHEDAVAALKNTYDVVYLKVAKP
protocol notes: SPR, Biacore 3000, PDZ1/2 amine-coupled on CM5 chip, peptide as analyte, 1:1 binding model
readout: Kd
Quote the value and follow it with the unit of measurement.

Query :: State, in one line, measured Kd of YGRKKRRQRRRYEKLSSIESDV (modifications not checked) [chimeric peptide YE-NA-1]
Result :: 54.4 nM
